Would you kindly list inhibition for each of these compounds?
# Test target: CDK2 CCNA2 (human) (UniProt P20248+P24941)
# Test name: radiometric filter-binding kinase assay
# Particulars: compound 100.0 µM; ATP 20 µM

Record inhibition for all entries; do not skip any.
1. O=C(c1cccc(-c2cc3c(=O)[nH]cnc3s2)c1)N1CCOCC1
2. CC(=O)Nc1nc2cnc(-c3c(C)cccc3C)cn2n1
3. O=C(Nc1cnc2[nH]ccn2c1=O)c1ccccc1
4. CC(=O)Nc1nc2cnc(-c3ccccc3)cn2n1
5. O=C(Nc1cnc2[nH]cnn2c1=O)c1ccccc1
6. CC1CN(c2nc3ccccn3c(=O)c2N)CC(C)O1 (stereo unspecified)

Response line:
10%
0%
0%
34%
0%
8%
